# PROTOCOL_DETAILS: Measurement of solubility in isotonic buffer (Experimental Examples 7 and 8)
# CONDITION_NOTES: pH 6
The substances listed here are annotated with their solubility thermodynamic at 90 min.

H-VYGFVRACL-OH [SEQ ID NO: 87]: > 1000 µg/mL

Attention now turns to another entry.
Reported solubility thermodynamic at 90 min for H-GLYDGMEHL-OH [SEQ ID NO: 19] was > 1000 µg/mL

###

# TARGET_ENTITY: ERAP1 (Homo sapiens, UniProt Q9NZ08)
# Sequence (Q9NZ08 whole entry): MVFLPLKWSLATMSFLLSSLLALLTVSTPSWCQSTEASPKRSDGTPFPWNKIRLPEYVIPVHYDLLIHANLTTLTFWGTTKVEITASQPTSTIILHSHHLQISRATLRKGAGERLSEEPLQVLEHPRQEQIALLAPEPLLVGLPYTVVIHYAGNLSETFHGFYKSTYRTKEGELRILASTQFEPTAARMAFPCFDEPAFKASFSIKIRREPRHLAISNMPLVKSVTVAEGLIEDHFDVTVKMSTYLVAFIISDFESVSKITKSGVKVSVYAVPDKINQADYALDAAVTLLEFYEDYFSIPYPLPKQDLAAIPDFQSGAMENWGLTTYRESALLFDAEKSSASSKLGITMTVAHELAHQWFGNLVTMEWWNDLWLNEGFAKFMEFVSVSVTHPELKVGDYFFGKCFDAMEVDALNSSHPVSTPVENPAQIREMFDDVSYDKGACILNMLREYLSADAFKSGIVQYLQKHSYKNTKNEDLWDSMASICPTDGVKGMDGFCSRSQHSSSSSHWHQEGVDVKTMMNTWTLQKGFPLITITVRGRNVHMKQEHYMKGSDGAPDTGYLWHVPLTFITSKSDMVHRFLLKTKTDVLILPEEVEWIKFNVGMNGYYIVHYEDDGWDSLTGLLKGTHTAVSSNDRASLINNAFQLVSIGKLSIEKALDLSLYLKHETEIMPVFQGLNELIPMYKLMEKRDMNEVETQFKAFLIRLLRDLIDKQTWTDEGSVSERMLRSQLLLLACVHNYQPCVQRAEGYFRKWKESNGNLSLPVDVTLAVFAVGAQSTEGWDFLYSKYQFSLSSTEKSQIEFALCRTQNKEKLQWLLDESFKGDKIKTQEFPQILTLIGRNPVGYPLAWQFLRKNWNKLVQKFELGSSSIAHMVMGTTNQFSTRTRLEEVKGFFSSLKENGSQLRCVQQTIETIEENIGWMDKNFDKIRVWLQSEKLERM
# PROTOCOL_DETAILS: Test of trimming of N-terminal amino acid by ERAP1 (Experimental Example 9, Examples 69-84);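 further: peptide incubated with ERAP1 for 1 h before HPLC analysis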
# Type: biochemical
# CONDITION_NOTES: MAGE-A10 254-262 peptide obtained by ERAP1 trimming; from HPLC AUC
# formation rate of GLYDGMEHL (SEQ ID NO: 19) >= 6% gives fulfilled, anything below gives not fulfilled

H-CFGLYDGMEHL-OH [Example 75]: not fulfilled
H-CNGLYDGMEHL-OH [Example 82]: fulfilled
H-CSGLYDGMEHL-OH [Example 84]: not fulfilled
H-CEGLYDGMEHL-OH [Example 70]: fulfilled
H-CQGLYDGMEHL-OH [Example 69]: fulfilled

Determine whether this substance has formation rate of GLYDGMEHL (SEQ ID NO: 19) no lower than 6%: H-CWGLYDGMEHL-OH [Example 78] not fulfilled

Record H-CIGLYDGMEHL-OH [Example 73] ; criterion: formation rate of GLYDGMEHL (SEQ ID NO: 19) no lower than 6%. Met? not fulfilled

Check the entry H-CTGLYDGMEHL-OH [Example 77] : does formation rate of GLYDGMEHL (SEQ ID NO: 19) equal or exceed 6%? fulfilled

Say whether H-CGGLYDGMEHL-OH [Example 71] shows formation rate of GLYDGMEHL (SEQ ID NO: 19) of 6% or more. not fulfilled

Has H-CDGLYDGMEHL-OH [Example 83] a recorded formation rate of GLYDGMEHL (SEQ ID NO: 19) greater than or equal to 6%? fulfilled

In plain terms: is recorded formation rate of GLYDGMEHL (SEQ ID NO: 19) at least 6% for H-CPGLYDGMEHL-OH [Example 76] ? not fulfilled

Check the entry H-CKGLYDGMEHL-OH [Example 74] : does formation rate of GLYDGMEHL (SEQ ID NO: 19) equal or exceed 6%? not fulfilled

Is formation rate of GLYDGMEHL (SEQ ID NO: 19) for H-CVGLYDGMEHL-OH [Example 80] at or above 6%? not fulfilled

###

# TARGET_ENTITY: ERAP1 (Homo sapiens)
# PROTOCOL_DETAILS: Time-course changes of trimming of N-terminal amino acid by ERAP1 (Experimental Example 2)
# Assay type: biochemical
# CONDITION_NOTES: peptide obtained by trimming (SEQ ID NO: 53, 43 or 19); ERAP1 solution 0.5 mg/ml, room temperature, 4 hr
ASSAY_ENDPOINT: formation rate(%) 4 hr later

Record excerpt, results attached:
H-CLVLQELNVTV-OH [Example 23]: 38.1%
H-CAGLYDGMEHL-OH [Example 26]: 103%
H-CMGLYDGMEHL-OH [Example 28]: 96.0%
H-CGLYDGMEHL-OH [Example 25]: 100%
H-CAVLQELNVTV-OH [Example 22]: 51.3%
H-CLGLYDGMEHL-OH [Example 27]: 88.4%
H-CVLQELNVTV-OH [Example 21]: 78.8%

Result for H-CMVLQELNVTV-OH [Example 24] , tested on ERAP1 (Homo sapiens), formation rate(%) 4 hr later: 36.5%
